# Lookup of reported MIC keyed by entry
Tested on: Aspergillus flavus
Assay: Antifungal activity against Aspergillus flavus ATCC 16870 assessed as fungal growth inhibition incubated for 24 hrs by CLSI protocol based broth microdilution method
Format: functional

Prompt: Suppose we examine the compound COc1ccc2c(c1)C1(CCN(C(=O)CCC(=O)Nc3ccc(Br)cc3)CC1)OC(=O)N2 ; what MIC value has been reported?
Response: 256 µg/mL

Prompt: Suppose we examine the compound COc1cccc(NC(=O)/C=C/C(=O)N2CCC3(CC2)OC(=O)Nc2ccc(OC)cc23)c1 ; what MIC value has been reported?
Response: 128 µg/mL

Prompt: Suppose we examine the compound OC(Cn1cncn1)(Cn1cncn1)c1ccc(F)cc1F ; what MIC value has been reported?
Response: 16 µg/mL

Prompt: Suppose we examine the compound COc1ccc2c(c1)C1(CCN(C(=O)CC(=O)Nc3ccc(Br)cc3)CC1)OC(=O)N2 ; what MIC value has been reported?
Response: 256 µg/mL

Prompt: Suppose we examine the compound COc1ccc2c(c1)C1(CCN(C(=O)/C=C/C(=O)Nc3ccc([N+](=O)[O-])cc3OC)CC1)OC(=O)N2 ; what MIC value has been reported?
Response: 42.7 µg/mL

Next:
Prompt: Suppose we examine the compound COc1ccc2c(c1)C1(CCN(C(=O)/C=C/C(=O)Nc3ccccc3Cl)CC1)OC(=O)N2 ; what MIC value has been reported?
Response: 32 µg/mL

Prompt: Suppose we examine the compound COc1ccc2c(c1)C1(CCN(C(=O)C(O)C(O)C(=O)Nc3ccc(C)cc3)CC1)OC(=O)N2 (stereo not drawn) ; what MIC value has been reported?
Response: > 512 µg/mL

Prompt: Suppose we examine the compound COc1ccc2c(c1)C1(CCN(C(=O)/C=C/C(=O)Nc3ccc([N+](=O)[O-])cc3)CC1)OC(=O)N2 ; what MIC value has been reported?
Response: > 512 µg/mL

---

# Lookup of reported MIC keyed by entry
Test system: Aspergillus flavus
Assay: Antifungal activity against Aspergillus flavus ATCC 16870 assessed as fungal growth inhibition incubated for 24 hrs by CLSI protocol based broth microdilution method
Format: functional
Reply numerically in µg/mL, unit not repeated.

Prompt: Suppose we examine the compound COc1ccc2c(c1)C1(CCN(C(=O)C(O)C(O)C(=O)Nc3ccc(Br)cc3)CC1)OC(=O)N2 (stereo not given) ; what MIC value has been reported?
Response: 512

Prompt: Suppose we examine the compound COc1ccc2c(c1)C1(CCN(C(=O)C(O)C(O)C(=O)Nc3ccccc3)CC1)OC(=O)N2 (stereo not given) ; what MIC value has been reported?
Response: 512

Prompt: Suppose we examine the compound COc1ccc2c(c1)C1(CCN(C(=O)CCC(=O)Nc3ccc(C)cc3)CC1)OC(=O)N2 ; what MIC value has been reported?
Response: 256

Next:
Prompt: Suppose we examine the compound COc1ccc2c(c1)C1(CCN(C(=O)/C=C/C(=O)Nc3ccccc3C)CC1)OC(=O)N2 ; what MIC value has been reported?
Response: 512

Prompt: Suppose we examine the compound COc1ccc2c(c1)C1(CCN(C(=O)/C=C/C(=O)Nc3ccccc3OC)CC1)OC(=O)N2 ; what MIC value has been reported?
Response: 128

---

System: Candida tropicalis
Experiment: Inhibition of Candida tropicalis ATCC 750 chitin synthase using UDP-GlcNAc as substrate at 300 ug/ml incubated for 1 hrs by absorbance based assay relative to control
Conditions: dose 300.0 µg/ml
Is inhibition at least 40%? Then True. If not, False.

Here's what some known entries look like.
Prompt: Decide: inhibition of COc1ccc2c(c1)C1(CCN(C(=O)/C=C/C(=O)Nc3ccc(C)cc3)CC1)OC(=O)N2 >= 40%?
Response: True

Prompt: Decide: inhibition of COc1ccc2c(c1)C1(CCN(C(=O)/C=C/C(=O)Nc3ccccc3C)CC1)OC(=O)N2 >= 40%?
Response: False

Prompt: Decide: inhibition of COc1ccc2c(c1)C1(CCN(C(=O)/C=C/C(=O)Nc3ccc(Br)cc3)CC1)OC(=O)N2 >= 40%?
Response: True

Prompt: Decide: inhibition of COc1ccc2c(c1)C1(CCN(C(=O)CCC(=O)Nc3ccccc3)CC1)OC(=O)N2 >= 40%?
Response: False

Next:
Prompt: Decide: inhibition of COc1ccc2c(c1)C1(CCN(C(=O)/C=C/C(=O)Nc3ccccc3[N+](=O)[O-])CC1)OC(=O)N2 >= 40%?
Response: False

Prompt: Decide: inhibition of COc1ccc(NC(=O)C(O)C(O)C(=O)N2CCC3(CC2)OC(=O)Nc2ccc(OC)cc23)cc1 (configuration not stated) >= 40%?
Response: True

Source listed as ChEMBL document CHEMBL5331050.
